Tested on: TO-3-N3-2 (biotin conjugate)
PROTOCOL_SUMMARY: pull-down binding Z-score (relative to library population); higher = stronger binding
MEASUREMENT_CONDITIONS: RNA library: Library-2
Short version: pull-down binding Z-score at least -0.2 is Satisfied, less is Not satisfied.

UUACUCACCCUCUCAAAACCGAGACUCAGAGACGUUGGGUAA [hsa-mir-7973-2] | Satisfied
UGCUUCCACAUAGCAGCA [hsa-mir-4752] | Not satisfied
GGUGCAGUCAGUCCUAGCUC [hsa-mir-3135b] | Satisfied
AGCUUUAUGUAUUCUGAAGUUAUUGAAAAUAAGAGCU [hsa-mir-3140] | Not satisfied
UUUUGCAGUUUUUUUAAGUAAUUGCAAAA [hsa-mir-548f-3] | Not satisfied
UGCAAGAGAUGGUUGUGUUCCCUUGAACAUAAUACCUCUUACA [DMSMaPseq_invitro_SARS-CoV-2_Motif_219] | Satisfied
GCACAUAUAUCUACUAUUGGUGUUUGUUCUAUGACUGACAUAGCCAAGAAACCAACUGAAACGAUUUGUGC | Not satisfied
AAUCCCUCUCUUUCUAGUUCUUCCUAGAGUGAGGAAAA [hsa-mir-320b-1] | Satisfied
CUUUAGGCAUUCAGAAUAGCUAAAG [hsa-mir-4662b] | Not satisfied
